# credit: patent US5272147A

Measured pIC50, listed per entry.
Biological target: Ca/CAM-independent cGMP PDE (Oryctolagus cuniculus, UniProt G1SX67)
Construct: The PDE enzymes are isolated from rabbit platelets and rat kidney
Assay: Phosphodiesterase activity: inhibition of calcium/calmodulin (Ca/CAM)-independent cGMP PDE from rabbit platelets
Settings: in vitro; Ca/CAM-independent cGMP PDE from rabbit platelets
Method: Compound affinities for cGMP and cAMP PDEs are assessed by determination of their IC50 value (the concentration of inhibitor required for 50% inhibition of enzyme activity). The PDE enzymes are isolated from rabbit platelets and rat kidney, essentially by the method of W. J. Thompson et al. (Biochem., 1971, 10, 311). […]
pIC50: −log10 of the molar value.

| compound | experimental-system | pIC50 |
| --- | --- | --- |
| CCCOc1ccc(C(=O)CN2CCN(C)CC2)cc1-c1nc2c(CCC)nn(C)c2c(=O)[nH]1 | Ca/CAM-independent cGMP PDE (Oryctolagus cuniculus, UniProt G1SX67) | 8.47 |
| CCCOc1ccc(C(O)CN2CCOCC2)cc1-c1nc2c(CCC)nn(C)c2c(=O)[nH]1 (stereo not shown) | Ca/CAM-independent cGMP PDE (Oryctolagus cuniculus, UniProt G1SX67) | 8.43 |
| CCCc1nn(C)c2c(=O)[nH]c(-c3cc(C(=O)O)ccc3OCC)nc12 | Ca/CAM-independent cGMP PDE (Oryctolagus cuniculus, UniProt G1SX67) | 8.26 |
| CCCc1nn(C)c2c(=O)[nH]c(-c3cc(C(=O)N4CCN(C)CC4)ccc3OCC)nc12 | Ca/CAM-independent cGMP PDE (Oryctolagus cuniculus, UniProt G1SX67) | 8.85 |
| CCCOc1ccc(C(=O)CN2CCOCC2)cc1-c1nc2c(CCC)nn(C)c2c(=O)[nH]1 | Ca/CAM-independent cGMP PDE (Oryctolagus cuniculus, UniProt G1SX67) | 9.00 |
| CCCOc1ccc(COCCO)cc1-c1nc2c(CCC)nn(C)c2c(=O)[nH]1 | Ca/CAM-independent cGMP PDE (Oryctolagus cuniculus, UniProt G1SX67) | 8.28 |
| CCCc1nn(C)c2c(=O)[nH]c(-c3cc(C(O)CN4CCOCC4)ccc3OCC)nc12 (stereo not shown) | Ca/CAM-independent cGMP PDE (Oryctolagus cuniculus, UniProt G1SX67) | 8.31 |
| CCCc1nn(C)c2c(=O)[nH]c(-c3cc(-c4nccn4C)ccc3OCC)nc12 | Ca/CAM-independent cGMP PDE (Oryctolagus cuniculus, UniProt G1SX67) | 8.85 |
| CCCc1nn(C)c2c(=O)[nH]c(-c3cc(C(=O)CN4CCOCC4)ccc3OCC)nc12 | Ca/CAM-independent cGMP PDE (Oryctolagus cuniculus, UniProt G1SX67) | 8.74 |
| CCCOc1ccc(/C=C/C(=O)O)cc1-c1nc2c(CCC)nn(C)c2c(=O)[nH]1 | Ca/CAM-independent cGMP PDE (Oryctolagus cuniculus, UniProt G1SX67) | 8.43 |
| CCCc1nn(C)c2c(=O)[nH]c(-c3cc(C(=O)CN4CCN(C(C)=O)CC4)ccc3OCC)nc12 | Ca/CAM-independent cGMP PDE (Oryctolagus cuniculus, UniProt G1SX67) | 8.66 |
| CCCc1nn(C)c2c(=O)[nH]c(-c3cc(-n4ccnc4)ccc3OCC)nc12 | Ca/CAM-independent cGMP PDE (Oryctolagus cuniculus, UniProt G1SX67) | 8.47 |
| CCCc1nn(C)c2c(=O)[nH]c(-c3cc(/C=C/C(=O)N(C)C)ccc3OCC)nc12 | Ca/CAM-independent cGMP PDE (Oryctolagus cuniculus, UniProt G1SX67) | 8.47 |
